From: the RNAGym collection of RNA variant scans (doi:10.1073/pnas.2313332121)

B1: TPR 5TU (parent)
chain: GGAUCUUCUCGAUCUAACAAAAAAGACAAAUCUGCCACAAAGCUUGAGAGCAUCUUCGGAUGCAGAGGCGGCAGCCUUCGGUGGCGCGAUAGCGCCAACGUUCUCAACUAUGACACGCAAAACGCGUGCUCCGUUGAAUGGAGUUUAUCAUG

variants of: B1; assay: polymerase ribozyme fitness, log enrichment relative to wild type (log ratio); higher = more active; in vitro selection for triplet polymerase activity
Fewer inactive variants are shown than the library holds.
Provide the reported polymerase ribozyme fitness (log ratio) of each item.

Study these solved cases before continuing.
mutant.designation: C75G A113U
readout.kind: polymerase ribozyme fitness (log ratio)
reported.result: ≤ -4.2

mutant.designation: G50C G74C A120G G124U G126A
readout.kind: polymerase ribozyme fitness (log ratio)
reported.result: ≤ -4.2

mutant.designation: A40U G92A A120U C132A G141C
readout.kind: polymerase ribozyme fitness (log ratio)
reported.result: ≤ -4.2

mutant.designation: A16G A29G A47U C57U A73C C93G A98G A115G
readout.kind: polymerase ribozyme fitness (log ratio)
reported.result: ≤ -4.2

mutant.designation: A73U A97G U130G
readout.kind: polymerase ribozyme fitness (log ratio)
reported.result: ≤ -4.2

Give polymerase ribozyme fitness (log ratio) for each of the items listed below.
1. A30U C51G A98U G136U
2. A16U G71A A73G C93U A113C C118A G140A
3. A30C C87G C99G C132A G140U
4. C27G U55A A73G U77A C87A A142U
5. U13G C75G
6. C14U A21C G67U U77A C85G C96U U127G
7. A60G C85U U144G

≤ -4.2
≤ -4.2
≤ -4.2
≤ -4.2
≤ -4.2
≤ -4.2
0.543

Look at each variant and report its polymerase ribozyme fitness (log ratio).
1. A40C G128U G143U
2. C132U U145G

["≤ -4.2", -0.815]
